The measurements presented in this section are drawn from ChEMBL document CHEMBL4118275.

Give EC50 for every item shown.
# test-method-notes: Antioxidant activity assessed as DPPH radical scavenging activity measured after 30 mins
# Type: functional
Note: unit nM is implicit; provide only the numeric part.

If you can, please state the reported EC50 value of CC1(C)Oc2ccc3ccc(=O)oc3c2CC1OC(=O)/C=C/c1ccc(O)c(O)c1 (stereo not drawn) .
3060

If you can, please state the reported EC50 value of COC(=O)/C=C/c1ccc(O)c(O)c1 [METHYLCAFFEATE] .
1500

If you can, please state the reported EC50 value of O=c1c(O)c(-c2ccc(O)c(O)c2)oc2cc(O)cc(O)c12 .
170

----------
# Tested on: HepG2
# test-method-notes: Cytotoxicity against human HepG2 cells at 10 uM
# Assay type: cell-based
# experimental-context: hepg2, 10 µM

compound: COc1ccc(/C=C/C(=O)OC2Cc3c(ccc4ccc(=O)oc34)OC2(C)C)cc1OC (stereo not drawn)
Activity: Non-Toxic
//
compound: COc1cc(/C=C/C(=O)OC2Cc3c(ccc4ccc(=O)oc34)OC2(C)C)ccc1O (stereo not drawn)
Activity: Non-Toxic
//
compound: CC(C)(OC(=O)/C=C/c1ccc(O)cc1)C1Cc2c(ccc3ccc(=O)oc23)O1 (stereo not drawn)
Activity: Non-Toxic

----------
# System: HepG2
# test-method-notes: Cytoprotective activity against 100 uM t-BHP-induced oxidative stress in human HepG2 cells assessed as cell viability preincubated for 1 hr followed by t-BHP addition measured after 3 hrs by CCK-8 assay (reference value: 22%)
# Assay type: functional
The source made the active and inactive calls. The calls are words filed in the database; no cut-off is given here.
readout: Activity

compound: COc1ccc(/C=C/C(=O)OC2Cc3c(ccc4ccc(=O)oc34)OC2(C)C)cc1OC (stereo unspecified)
value-observed: inactive
--
compound: CC1(C)Oc2cc3oc(=O)ccc3cc2CC1O (stereo unspecified)
value-observed: inactive
--
compound: COC(=O)/C=C/c1ccc(O)c(O)c1 [METHYLCAFFEATE]
value-observed: 31%
--
compound: COc1cc(/C=C/C(=O)OC2Cc3c(ccc4ccc(=O)oc34)OC2(C)C)cc(OC)c1OC (stereo unspecified)
value-observed: inactive
--
compound: CC1(C)Oc2ccc3ccc(=O)oc3c2CC1OC(=O)/C=C/c1ccccc1 (stereo unspecified)
value-observed: inactive

Now look at this one.
If you can, please state the reported Activity value of CC(C)(O)C1Cc2cc3ccc(=O)oc3cc2O1 (stereo unspecified) .
inactive

----------
# Test system: HepG2
# test-method-notes: Cytoprotective activity against 100 uM t-BHP-induced oxidative stress in human HepG2 cells assessed as cell viability preincubated for 1 hr followed by t-BHP addition measured after 3 hrs by CCK-8 assay (reference value: 22%)
# Assay type: functional
The source made the active and inactive calls. The calls are words filed in the database; no cut-off is given here.
readout: Activity

compound: CC1(C)Oc2cc3oc(=O)ccc3cc2CC1OC(=O)/C=C/c1ccc(O)cc1 (stereo not given)
target-system: HepG2
Activity: inactive
//
compound: CC(C)(OC(=O)/C=C/c1ccc(O)cc1)C1Cc2cc3ccc(=O)oc3cc2O1 (stereo not given)
target-system: HepG2
Activity: inactive
//
compound: CC1(C)Oc2ccc3ccc(=O)oc3c2CC1OC(=O)/C=C/c1ccc(O)c(O)c1 (stereo not given)
target-system: HepG2
Activity: 86%
//
compound: CC1(C)Oc2ccc3ccc(=O)oc3c2CC1OC(=O)/C=C/c1ccc(O)cc1 (stereo not given)
target-system: HepG2
Activity: inactive

Now look at this one.
If you can, please state the reported Activity value of O=c1c(O)c(-c2ccc(O)c(O)c2)oc2cc(O)cc(O)c12 .
62%
